Listed below: folding enthalpy values for each entry.
- experimental_details: folding enthalpy; higher = less favourable; fluorescence melt of hairpins on a sequencing array, two-state fit
- assay_conditions: sodium 0.088 M
Numeric answer only, unit kcal/mol assumed.

Record excerpt, results attached:
>  <sequence_content>
GGGATCGAAAGATGACCC ((((((....)))..)))

>  <folding enthalpy, kcal/mol>
-27.8

$$$$
>  <sequence_content>
GAACCGCGAAAGCGTTC (((.(((....))))))

>  <folding enthalpy, kcal/mol>
-14.2

$$$$
>  <sequence_content>
GACAGCGAAAGCTACGTC ((((((....)))..)))

>  <folding enthalpy, kcal/mol>
-13.8

$$$$
>  <sequence_content>
GTATTGCGAAAGCATTAC (((.(((....))).)))

>  <folding enthalpy, kcal/mol>
-23.7

$$$$
>  <sequence_content>
GTGCCCGGAAACAGGCAC (((((.(....).)))))

>  <folding enthalpy, kcal/mol>
-40.4

$$$$
>  <sequence_content>
GACAGTACGAAAGTAGTC (((..(((....))))))

>  <folding enthalpy, kcal/mol>
-16.2

$$$$

Now for a further sequence.
Please give the measured folding enthalpy for this sequence: GGCACCCCGAAAGGGGCC (((..(((....))))))
-12.9
